assay: thermal stability of aqueous solution (80 °C, 20 h); format: physicochemical; conditions: water; remaining content after analogous treatment (20 h, 80 °C); read-out: Gehalt
Counter-ions that a name gives are not always drawn.
EXPERIMENTAL ENDPOINT: remaining at 20 h

Recorded remaining at 20 h (molecule CN[C@H](CC(C)C)C(=O)N[C@H]1C(=O)N[C@@H](CC(N)=O)C(=O)N[C@H]2C(=O)N[C@H]3C(=O)N[C@H](C(=O)N[C@H](C(=O)O)c4cc(O)cc(O)c4-c4cc3ccc4O)[C@H](O)c3ccc(c(Cl)c3)Oc3cc2cc(c3O[C@@H]2O[C@H](CO)[C@@H](O)[C@H](O)[C@H]2O[C@H]2C[C@](C)(N)[C@H](O)[C@H](C)O2)Oc2ccc(cc2Cl)[C@H]1O [Vancomycinhydrochlorid] ): ~25%

The values you see were collected from patent EP0437846A2.
